molecular target: Receptor-interacting serine/threonine-protein kinase 1 (Homo sapiens, UniProt Q13546); assay: Inhibition of GSK657 binding to human RIPK1 (1 to 328) by fluorescence Polarization assay
Sequence (Q13546 whole entry): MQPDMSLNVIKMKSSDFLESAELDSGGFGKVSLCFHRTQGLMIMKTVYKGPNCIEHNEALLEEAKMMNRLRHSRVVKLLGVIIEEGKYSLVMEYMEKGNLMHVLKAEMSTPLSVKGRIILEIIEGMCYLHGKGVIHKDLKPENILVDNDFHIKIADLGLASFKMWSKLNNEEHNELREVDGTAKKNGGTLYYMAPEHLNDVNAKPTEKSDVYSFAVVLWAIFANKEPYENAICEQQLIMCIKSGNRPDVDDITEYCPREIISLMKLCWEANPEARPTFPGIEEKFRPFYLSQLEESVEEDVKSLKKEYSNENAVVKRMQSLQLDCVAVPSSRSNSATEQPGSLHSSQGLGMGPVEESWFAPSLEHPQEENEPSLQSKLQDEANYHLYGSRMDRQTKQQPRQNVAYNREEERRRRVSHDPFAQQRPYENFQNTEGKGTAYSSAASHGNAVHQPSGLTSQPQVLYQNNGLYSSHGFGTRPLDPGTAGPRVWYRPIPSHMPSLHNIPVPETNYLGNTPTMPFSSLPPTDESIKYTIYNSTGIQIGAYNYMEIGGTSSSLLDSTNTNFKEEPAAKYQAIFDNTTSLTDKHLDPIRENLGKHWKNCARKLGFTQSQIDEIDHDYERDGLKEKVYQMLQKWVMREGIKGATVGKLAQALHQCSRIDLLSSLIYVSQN
quantityKind: IC50 (nM)

a: CNC(=O)c1ccc2c(c1)ncn2-c1ccc(CC(=O)OC(C)(C)C)cc1
b: Cc1cc(-c2cnc(N)c3c(-c4ccc5scnc5c4)csc23)n(C)n1
Lower value of IC50 belongs to which: a or b ? When you have decided, please share the label of that item. a

====

target: Tyrosine-protein kinase ABL1 (Homo sapiens, UniProt P00519)
Sequence (P00519 whole entry): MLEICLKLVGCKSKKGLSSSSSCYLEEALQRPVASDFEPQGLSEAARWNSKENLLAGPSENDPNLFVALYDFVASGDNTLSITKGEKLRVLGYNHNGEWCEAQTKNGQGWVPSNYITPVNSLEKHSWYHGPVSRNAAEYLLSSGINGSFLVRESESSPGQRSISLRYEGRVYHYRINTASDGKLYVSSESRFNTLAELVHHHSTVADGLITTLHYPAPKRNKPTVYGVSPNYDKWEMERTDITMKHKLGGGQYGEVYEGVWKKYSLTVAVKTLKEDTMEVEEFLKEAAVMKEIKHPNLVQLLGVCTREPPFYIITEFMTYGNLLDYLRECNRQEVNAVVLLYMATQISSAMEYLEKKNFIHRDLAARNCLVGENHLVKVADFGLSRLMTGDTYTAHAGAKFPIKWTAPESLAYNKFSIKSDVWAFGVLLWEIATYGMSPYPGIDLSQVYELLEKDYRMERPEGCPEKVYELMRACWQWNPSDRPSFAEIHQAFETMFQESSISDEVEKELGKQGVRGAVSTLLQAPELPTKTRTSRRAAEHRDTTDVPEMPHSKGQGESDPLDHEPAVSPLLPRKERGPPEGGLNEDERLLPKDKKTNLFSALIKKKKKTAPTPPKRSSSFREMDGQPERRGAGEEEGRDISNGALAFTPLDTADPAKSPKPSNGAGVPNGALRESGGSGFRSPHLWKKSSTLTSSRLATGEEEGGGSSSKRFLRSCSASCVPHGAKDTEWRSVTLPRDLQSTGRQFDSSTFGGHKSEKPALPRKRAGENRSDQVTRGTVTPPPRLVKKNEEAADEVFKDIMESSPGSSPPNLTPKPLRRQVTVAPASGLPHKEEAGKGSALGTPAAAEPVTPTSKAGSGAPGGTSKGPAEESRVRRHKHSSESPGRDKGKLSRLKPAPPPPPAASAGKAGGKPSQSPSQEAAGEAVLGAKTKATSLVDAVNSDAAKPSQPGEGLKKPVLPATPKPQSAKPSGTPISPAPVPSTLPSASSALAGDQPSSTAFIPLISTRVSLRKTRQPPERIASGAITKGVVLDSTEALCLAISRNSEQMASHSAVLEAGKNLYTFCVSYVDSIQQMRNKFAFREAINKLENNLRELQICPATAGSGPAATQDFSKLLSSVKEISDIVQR
pIC50: −log10 of the molar value.
quantityKind: pIC50

Please look up its pIC50: Cc1ccc(CCCCN2C(=O)N[C@H](Cc3c[nH]c4c(Cl)cccc34)C2=O)cc1C#Cc1cnc2cccnn12 < 6.00
